Test system: KYSE-70 (Esophageal Squamous Cell Carcinoma)
Protocol: combination Emax (second highest fraction inhibited in the dose matrix, 72 h); higher = more inhibition; extreme values may be limits of the assay
Reported combination Emax is given for each of the following molecules.

| Molecule | Measured On | combination Emax |
| --- | --- | --- |
| Cc1c2c(nn1C)CSCc1cc(n(C)n1)CSc1cc(c3ccccc3c1)OCCCc1c(C(=O)O)n(C)c3c-2c(Cl)ccc13 [AZD5991] + Cc1cc2ncnn2cc1Nc1ncc2c(n1)n(C1CCOCC1)c(=O)n2C [AZD7648] (first compound max 1 µM, 7x7, partner max 10 µM) | KYSE-70 (Esophageal Squamous Cell Carcinoma) | 0.159 |
| C[C@@H](c1ccc2nccn2c1)n1nnc2ncc(-c3cnn(C)c3)nc21 [Savolitinib] + CC1(C)CCC(CN2CCN(c3ccc(C(=O)NS(=O)(=O)c4ccc(NCC5CCOCC5)c([N+](=O)[O-])c4)c(Oc4cnc5[nH]ccc5c4)c3)CC2)=C(c2ccc(Cl)cc2)C1 [Venetoclax] (first compound max 1 µM, 7x7, partner max 1 µM) | KYSE-70 (Esophageal Squamous Cell Carcinoma) | 0.095 |
| COc1cc2c(cc1OCCCCCOc1cc3c(cc1OC)C(=O)N1C=C(C)C[C@H]1C=N3)N=C[C@@H]1CC(C)=CN1C2=O [SG3199] + O=C(c1cc(Cc2n[nH]c(=O)c3ccccc23)ccc1F)N1CCN(C(=O)C2CC2)CC1 [Olaparib] (first compound max 0.001 µM, 7x7, partner max 10 µM) | KYSE-70 (Esophageal Squamous Cell Carcinoma) | 0.0678 |
| C=CCn1c(=O)c2cnc(Nc3ccc(N4CCN(C)CC4)cc3)nc2n1-c1cccc(C(C)(C)O)n1 [AZD1775] + C1CN(CCC1(C(=O)N[C@@H](CCO)C2=CC=C(C=C2)Cl)N)C3=NC=NC4=C3C=CN4 [Capivasertib] (first compound max 3 µM, partner max 3 µM) | KYSE-70 (Esophageal Squamous Cell Carcinoma) | 0.534 |

====

Tested on: RT4 (Bladder Carcinoma)
Protocol: combination Emax (second highest fraction inhibited in the dose matrix, 72 h); higher = more inhibition; extreme values may be limits of the assay

| Molecule | Measured On | combination Emax |
| --- | --- | --- |
| COc1cccc(OCCCN)c1-c1cc(Nc2cnc(C#N)cn2)n[nH]1 [Prexasertib] + O=C(c1cc(Cc2n[nH]c(=O)c3ccccc23)ccc1F)N1CCN(C(=O)C2CC2)CC1 [Olaparib] (first compound max 1 µM, 7x7, partner max 10 µM) | RT4 (Bladder Carcinoma) | 0.237 |
| CC1(C)CCC(CN2CCN(c3ccc(C(=O)NS(=O)(=O)c4ccc(NCC5CCOCC5)c([N+](=O)[O-])c4)c(Oc4cnc5[nH]ccc5c4)c3)CC2)=C(c2ccc(Cl)cc2)C1 [Venetoclax] + C[C@@H](Nc1cc(F)cc(F)c1)c1cc(C(=O)N(C)C)cc2c(=O)cc(N3CCOCC3)oc12 [AZD8186] (first compound max 1 µM, 7x7, partner max 3 µM) | RT4 (Bladder Carcinoma) | 0.174 |
| CN(CCO)CC[C@H](CSc1ccccc1)Nc1ccc(S(=O)(=O)NC(=O)c2ccc(N3CCC([C@@H](O)c4ccccc4-c4ccc(Cl)cc4)CC3)cc2)cc1S(=O)(=O)C(F)(F)F [AZD4320] + C=CCn1c(=O)c2cnc(Nc3ccc(N4CCN(C)CC4)cc3)nc2n1-c1cccc(C(C)(C)O)n1 [AZD1775] (first compound max 1 µM, partner max 1 µM) | RT4 (Bladder Carcinoma) | 0.629 |
| CC1(C)CCC(CN2CCN(c3ccc(C(=O)NS(=O)(=O)c4ccc(NCC5CCOCC5)c([N+](=O)[O-])c4)c(Oc4cnc5[nH]ccc5c4)c3)CC2)=C(c2ccc(Cl)cc2)C1 [Venetoclax] + COc1cc(Nc2ncc3c(n2)-c2ccc(Cl)cc2C(c2c(F)cccc2OC)=NC3)ccc1C(=O)O [Alisertib] (first compound max 1 µM, 7x7, partner max 10 µM) | RT4 (Bladder Carcinoma) | 0.791 |
| CCN(CCO)CCCOc1ccc2c(Nc3cc(CC(=O)Nc4cccc(F)c4)[nH]n3)ncnc2c1 [AZD2811] + C[C@@H]1COCCN1C2=NC(=NC(=C2)C3(CC3)[S@](=N)(=O)C)C4=C5C=CNC5=NC=C4 [AZD6738] (first compound max 1 µM, 7x7, partner max 10 µM) | RT4 (Bladder Carcinoma) | 0.429 |
